Values were extracted from the NIST ThermoML archive (doi:10.1016/j.fluid.2012.11.013).

- test_context: 293.15 K; 10000 kPa; Liquid; Vibrating tube method
measured_quantity: mass density (kg/m3)

[[record]]
smiles_data = "CCC(C)(C)C"
unit_string = "kg/m3"
measured = 660.66

[[record]]
smiles_data = "CC(C)C(C)C"
unit_string = "kg/m3"
measured = 672.12

[[record]]
smiles_data = "CCCC(C)C"
unit_string = "kg/m3"
measured = 663.8

[[record]]
smiles_data = "CCC(C)CC"
unit_string = "kg/m3"
measured = 674.41


* * *

- test_context: 308.15 K; 100 kPa; Liquid; Vibrating tube method
measured_quantity: mass density (kg/m3)

[[record]]
compound = "CCC(C)(C)C [2,2-dimethylbutane]"
unit_string = "kg/m3"
measured = 634.86

[[record]]
compound = "CCCC(C)C [2-methylpentane]"
unit_string = "kg/m3"
measured = 639.25

[[record]]
compound = "CC(C)C(C)C [2,3-dimethylbutane]"
unit_string = "kg/m3"
measured = 647.61

[[record]]
compound = "CCC(C)CC [3-methylpentane]"
unit_string = "kg/m3"
measured = 650.44

